# Tested on: PPARg:RXRa DBDmut IVT, anti-RXR (DBD mutation: RXRa K156A/R161A, NR concentration 270 nM, RXRa partner concentration 90 nM)
# assay info: PBM binding z-score (relative to random genomic background probes); higher = stronger binding; sequences stand for … in GC…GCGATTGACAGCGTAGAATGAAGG
The following sequences are listed with their measured PBM binding z-score values.

Lookup result for GCTCGTAGGACAAGGTCAGAGCTTTGTCCGTAGA ; measured PBM binding z-score: 0.0127

Lookup result for TGTCAAAGTTCAAAGGGAACGTAAGTATCCACAC ; measured PBM binding z-score: -0.458

Lookup result for GATACAGGGTCAGCTAAAGGCCAGAGTATGGAAA ; measured PBM binding z-score: 1.25

Lookup result for CCGACTGGGGCAAAGGTTACCGTACTCAGTACGA ; measured PBM binding z-score: 4.82
